SYSTEM_UNDER_TEST: human HER3 on human cancer cells (human, UniProt P21860 20-1342)
ASSAY_REMARKS: cell-based or functional assay
METRIC: BT474 clonogenic assay % Max inhibition (%)
Use % as the unit, but write only the number.

Name the recorded BT474 clonogenic assay % Max inhibition for 1A4 antibody, human IgG1 (antibody, V domains shown, IgG1, lambda) VH: EVQLLESGGGLVQPGGSLRLSCAASGFTFSYYYMQWVRQAPGKGLEWVSYIGSSGGVTNYADSVKGRFTISRDNSKNTLYLQMNSLRAEDTAVYYCARVGLGDAFDIWGQGTMVTVSS VL: QSVLTQPPSASGTPGQRVTISCSGSSSNIGLNYVSWYQQLPGTAPKLLISRNNQRPSGVPDRFSGSKSGTSASLAISGLRSEDEADYYCAAWDDSPPGEAFGGGTKLTVL .
81.3

From: patent US20160237162A1
